Data provenance is the supplement of paper PMC7877785.

test_description: self-splicing fitness, log relative to wild type (ln ratio); higher = more splicing; Tetrahymena group I intron in knt gene, E. coli kanamycin selection, DiMSum; sequences stand for … in CUCUCU…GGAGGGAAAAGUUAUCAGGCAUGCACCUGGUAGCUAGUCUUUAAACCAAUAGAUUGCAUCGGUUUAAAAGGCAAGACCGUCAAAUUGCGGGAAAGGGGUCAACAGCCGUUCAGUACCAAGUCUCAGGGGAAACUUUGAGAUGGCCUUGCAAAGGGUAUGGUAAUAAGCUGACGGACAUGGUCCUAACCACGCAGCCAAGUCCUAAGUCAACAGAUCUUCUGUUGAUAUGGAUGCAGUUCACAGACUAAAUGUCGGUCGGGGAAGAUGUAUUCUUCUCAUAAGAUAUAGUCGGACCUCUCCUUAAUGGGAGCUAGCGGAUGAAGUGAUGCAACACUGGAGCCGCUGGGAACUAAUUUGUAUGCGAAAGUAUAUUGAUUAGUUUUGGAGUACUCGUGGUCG;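 further: selection with 25 µg/mL kanamycin versus none on LB agar overnight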
run_conditions: 30 °C
# Lookup of reported self-splicing fitness (ln) keyed by entry

{"chain": "AUGUAGCAAUAUUACGGGCG", "self-splicing fitness (ln)": -1.33}
{"chain": "AUACAGCAAUAUUACGCCAA", "self-splicing fitness (ln)": -2.6}
{"chain": "AGGUAGCAAUAUUACGUGCU", "self-splicing fitness (ln)": -0.841}
{"chain": "CCUAAGCAAUAUUACGGCGA", "self-splicing fitness (ln)": -2.84}
{"chain": "CUGAAGCAAUAUUACGUCAA", "self-splicing fitness (ln)": -1.2}

*Q* Please list self-splicing fitness (ln) recorded for the sequence UGAAAGCAAUAUUACGGUAC
*A* -3.27

*Q* Please list self-splicing fitness (ln) recorded for the sequence GUACAGCAAUAUUACGCCAC
*A* -1.49

*Q* Please list self-splicing fitness (ln) recorded for the sequence CAAUAGCAAUAUUACGCGUA
*A* -2.09

*Q* Please list self-splicing fitness (ln) recorded for the sequence CUACAGCAAUAUUACGCAAC
*A* -3.66

*Q* Please list self-splicing fitness (ln) recorded for the sequence GAUGAGCAAUAUUACGUGAA
*A* -3.72

*Q* Please list self-splicing fitness (ln) recorded for the sequence AAACAGCAAUAUUACGAAGA
*A* -2.29

*Q* Please list self-splicing fitness (ln) recorded for the sequence UCUAAGCAAUAUUACGUGGC
*A* -3.09

*Q* Please list self-splicing fitness (ln) recorded for the sequence UUAAAGCAAUAUUACGAGAG
*A* -0.988

* * *

# Lookup of reported self-splicing fitness (ln) keyed by entry
test_description: self-splicing fitness, log relative to wild type (ln ratio); higher = more splicing; Tetrahymena group I intron in knt gene, E. coli kanamycin selection, DiMSum; sequences stand for … in CUCUCU…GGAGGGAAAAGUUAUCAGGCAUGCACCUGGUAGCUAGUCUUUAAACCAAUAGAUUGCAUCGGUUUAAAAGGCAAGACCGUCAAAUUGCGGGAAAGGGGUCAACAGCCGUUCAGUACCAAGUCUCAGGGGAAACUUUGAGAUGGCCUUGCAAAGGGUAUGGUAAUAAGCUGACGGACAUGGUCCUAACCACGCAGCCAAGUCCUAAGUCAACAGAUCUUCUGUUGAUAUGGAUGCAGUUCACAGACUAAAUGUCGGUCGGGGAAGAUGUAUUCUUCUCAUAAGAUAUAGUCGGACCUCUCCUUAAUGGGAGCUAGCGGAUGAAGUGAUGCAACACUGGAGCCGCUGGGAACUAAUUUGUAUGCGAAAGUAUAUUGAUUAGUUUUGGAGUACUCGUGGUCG
run_conditions: 30 °C
Please give the numeric answer without any surrounding text.

Answered examples (5):
{"chain": "ACAGAGCAAUAUUACGUGCC", "self-splicing fitness (ln)": -3.54}
{"chain": "CUAGAGCAAUAUUACGACGG", "self-splicing fitness (ln)": -0.119}
{"chain": "AUGUAGCAAUAUUACGUACU", "self-splicing fitness (ln)": -0.0156}
{"chain": "CUACAGCAAUAUUACGCCGA", "self-splicing fitness (ln)": -2.29}
{"chain": "GGUGAGCAAUAUUACGGCGU", "self-splicing fitness (ln)": -1.29}

*Q* Please list self-splicing fitness (ln) recorded for the sequence GCUAAGCAAUAUUACGAGAA
*A* -0.77

*Q* Please list self-splicing fitness (ln) recorded for the sequence ACUAAGCAAUAUUACGUUCU
*A* -0.391

*Q* Please list self-splicing fitness (ln) recorded for the sequence CGUGAGCAAUAUUACGGACC
*A* -2.51

*Q* Please list self-splicing fitness (ln) recorded for the sequence UGGUAGCAAUAUUACGGCAA
*A* -1.14

*Q* Please list self-splicing fitness (ln) recorded for the sequence CAGUAGCAAUAUUACGCGCU
*A* -1.56

* * *

test_description: self-splicing fitness, log relative to wild type (ln ratio); higher = more splicing; Tetrahymena group I intron in knt gene, E. coli kanamycin selection, DiMSum; sequences stand for … in CUCUCU…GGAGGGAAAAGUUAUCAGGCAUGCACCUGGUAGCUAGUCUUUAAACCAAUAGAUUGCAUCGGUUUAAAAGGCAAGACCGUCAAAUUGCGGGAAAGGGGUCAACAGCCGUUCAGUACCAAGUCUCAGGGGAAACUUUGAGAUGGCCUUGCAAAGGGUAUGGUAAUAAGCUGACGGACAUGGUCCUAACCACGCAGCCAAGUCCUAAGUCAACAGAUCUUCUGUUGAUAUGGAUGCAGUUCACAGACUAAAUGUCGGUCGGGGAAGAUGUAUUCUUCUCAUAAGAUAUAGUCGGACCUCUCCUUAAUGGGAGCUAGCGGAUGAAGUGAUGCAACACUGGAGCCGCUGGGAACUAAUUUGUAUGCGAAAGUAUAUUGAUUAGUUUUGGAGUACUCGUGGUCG
run_conditions: 37 °C
Classification field: enter Condition met for self-splicing fitness (ln) values not below -1, Condition not met for values below it.

{"chain": "CAACAGCAAUAUUACGCGGG", "class_name": "Condition not met"}

*Q* Test whether the sequence UUCAAGCAAUAUUACGAUUU records self-splicing fitness (ln) of -1 or higher.
*A* Condition not met

*Q* Test whether the sequence UCCUAGCAAUAUUACGCCUC records self-splicing fitness (ln) of -1 or higher.
*A* Condition not met

*Q* Test whether the sequence UCUCAGCAAUAUUACGAUCC records self-splicing fitness (ln) of -1 or higher.
*A* Condition not met

*Q* Test whether the sequence CGAGAGCAAUAUUACGCCUG records self-splicing fitness (ln) of -1 or higher.
*A* Condition not met

*Q* Test whether the sequence AUCUAGCAAUAUUACGUAUG records self-splicing fitness (ln) of -1 or higher.
*A* Condition not met

*Q* Test whether the sequence GACCAGCAAUAUUACGAUUA records self-splicing fitness (ln) of -1 or higher.
*A* Condition met

* * *

# Lookup of reported self-splicing fitness (ln) keyed by entry
test_description: self-splicing fitness, log relative to wild type (ln ratio); higher = more splicing; Tetrahymena group I intron in knt gene, E. coli kanamycin selection, DiMSum; sequences stand for … in CUCUCU…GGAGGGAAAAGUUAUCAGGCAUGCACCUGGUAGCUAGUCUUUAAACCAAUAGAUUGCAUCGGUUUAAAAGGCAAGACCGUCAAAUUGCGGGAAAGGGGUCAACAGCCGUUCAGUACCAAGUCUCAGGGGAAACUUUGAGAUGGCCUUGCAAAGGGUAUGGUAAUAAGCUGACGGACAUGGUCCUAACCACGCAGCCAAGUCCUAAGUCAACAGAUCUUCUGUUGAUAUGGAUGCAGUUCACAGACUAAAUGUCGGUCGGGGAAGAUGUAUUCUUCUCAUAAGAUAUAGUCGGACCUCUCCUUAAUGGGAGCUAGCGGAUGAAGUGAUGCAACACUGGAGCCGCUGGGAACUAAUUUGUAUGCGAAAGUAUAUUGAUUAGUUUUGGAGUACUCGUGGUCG
run_conditions: 30 °C
Please give the numeric answer without any surrounding text.

{"chain": "UAUGAGCAAUAUUACGCGCG", "self-splicing fitness (ln)": -2.51}
{"chain": "AAACAGCAAUAUUACGAGGG", "self-splicing fitness (ln)": -3.69}
{"chain": "GCAUAGCAAUAUUACGUAGC", "self-splicing fitness (ln)": -4.39}
{"chain": "AUGGAGCAAUAUUACGCGCG", "self-splicing fitness (ln)": -2.41}
{"chain": "CCGAAGCAAUAUUACGGACG", "self-splicing fitness (ln)": -0.955}

*Q* Please list self-splicing fitness (ln) recorded for the sequence UCUGAGCAAUAUUACGACGG
*A* -1.18

*Q* Please list self-splicing fitness (ln) recorded for the sequence CAAAAGCAAUAUUACGCUAC
*A* -3.82

*Q* Please list self-splicing fitness (ln) recorded for the sequence GUCAAGCAAUAUUACGGUAU
*A* -1.54
